# Test system: SGC-7901
# ASSAY_EXPLANATION: Cytotoxicity against human SGC7901 cells after 72 hrs by MTT assay
# Format: functional, cell-based
# TEST_CONTEXT: SGC-7901, 72 h
READOUT_NAME: IC50
Dear colleague, please send the value followed by its unit.

See these solved cases before continuing.
| MOL | OBSERVED |
| --- | --- |
| Oc1cccc(/C=N/Nc2nc(NCCCN3CCOCC3)c3ccccc3n2)c1 | 4900 nM |
| Fc1ccc(/C=N/Nc2nc(NCCCN3CCOCC3)c3ccccc3n2)cc1 | 6770 nM |
| CN(C)CCNc1nc(N/N=C/c2ccc(F)cc2)nc2ccccc12 | 4100 nM |

Below are 5 molecules. Give each one its IC50.
1. Fc1ccc(Cn2ccnc2/C=N/Nc2nc(NCCCN3CCOCC3)c3ccccc3n2)cc1
2. Cc1ccc(Cn2ccnc2/C=N/Nc2nc(NC3CCN(C)CC3)c3ccccc3n2)cc1
3. CN(C)CCCNc1nc(N/N=C/c2nccn2Cc2cccc(Cl)c2Cl)nc2ccccc12
4. Cc1ccc(Cn2ccnc2/C=N/Nc2nc(NCCN(C)C)c3ccccc3n2)cc1
5. CN(C)CCNc1nc(N/N=C/c2nccn2Cc2ccc(F)cc2)nc2ccccc12

a:
1920 nM
960 nM
1170 nM
2750 nM
2420 nM

Below are 7 molecules. Give each one its IC50.
1. CN1CCC(Nc2nc(N/N=C/c3ccc(F)cc3)nc3ccccc23)CC1
2. CN(C)CCNc1nc(N/N=C/c2ccc(F)cc2Cl)nc2ccccc12
3. CN(C)CCCNc1nc(N/N=C/c2ccc(F)cc2)nc2ccccc12
4. Clc1ccc(/C=N/Nc2nc(NCCCN3CCOCC3)c3ccccc3n2)cc1
5. COc1ccc(OC)c(/C=N/Nc2nc(NC3CCN(C)CC3)c3ccccc3n2)c1
6. CN(C)CCNc1nc(N/N=C/c2nccn2Cc2cccc(Cl)c2Cl)nc2ccccc12
7. Clc1cccc(Cn2ccnc2/C=N/Nc2nc(NCCCN3CCOCC3)c3ccccc3n2)c1Cl

a:
1760 nM
1680 nM
2760 nM
3550 nM
4240 nM
1850 nM
2660 nM

Below are 4 molecules. Give each one its IC50.
1. C(=N\Nc1nc(NCCCN2CCOCC2)c2ccccc2n1)/c1nccn1Cc1ccccc1
2. CN(C)CCNc1nc(N/N=C/c2ccc(Cl)cc2)nc2ccccc12
3. Cc1ccc(-c2cc(NCCN(C)C)c3ccccc3n2)cc1
4. Oc1ccccc1/C=N/Nc1nc(NCCCN2CCOCC2)c2ccccc2n1

a:
["3960 nM", "970 nM", "4920 nM", "3210 nM"]

Below are 2 molecules. Give each one its IC50.
1. CN(C)CCCNc1nc(N/N=C/c2ccc(Cl)cc2)nc2ccccc12
2. CN1CCC(Nc2nc(N/N=C/c3nccn3Cc3ccc(F)cc3)nc3ccccc23)CC1

a:
1730 nM
780 nM

---

# System: SGC-7901
# ASSAY_EXPLANATION: Cytotoxicity against human SGC7901 cells after 72 hrs by MTT assay
# Type: functional, cell-based
# TEST_CONTEXT: SGC-7901, 72 h
READOUT_NAME: IC50 (nM)
Numbers only, in nM.

See these solved cases before continuing.
| MOL | OBSERVED |
| --- | --- |
| CN(C)CCCNc1nc(N/N=C/c2nccn2Cc2ccccc2)nc2ccccc12 | 2130 |
| CN1CCC(Nc2nc(N/N=C/c3ccc(F)cc3Cl)nc3ccccc23)CC1 | 1630 |
| Cc1ccc(Cn2ccnc2/C=N/Nc2nc(NCCCN(C)C)c3ccccc3n2)cc1 | 2600 |
| CN1CCC(Nc2nc(N/N=C/c3nccn3Cc3ccccc3)nc3ccccc23)CC1 | 1380 |

Would you kindly look at the next entry?
q: Quick one: IC50 for CN(C)CCNc1nc(N/N=C/c2nccn2Cc2ccccc2)nc2ccccc12 ?
a: 4300

---

# Test system: HT-29
# ASSAY_EXPLANATION: Cytotoxicity against human HT-29 cells after 72 hrs by MTT assay
# Type: functional, cell-based
# TEST_CONTEXT: HT-29, 72 h
pIC50: −log10 of the molar value.
We use 7 as the dividing line for pIC50: on or above the line is Condition met, below is Condition not met.

| MOL | GROUP_LABEL |
| --- | --- |
| CN1CCC(Nc2nc(N/N=C/c3ccc(F)cc3Cl)nc3ccccc23)CC1 | Condition not met |
| CN(C)CCCNc1nc(N/N=C/c2ccc(F)cc2)nc2ccccc12 | Condition not met |

q: Threshold query (pIC50 >= 7) on CN1CCC(Nc2nc(N/N=C/c3nccn3Cc3cccc(Cl)c3Cl)nc3ccccc23)CC1
a: Condition met

q: Threshold query (pIC50 >= 7) on Fc1ccc(Cn2ccnc2/C=N/Nc2nc(NCCCN3CCOCC3)c3ccccc3n2)cc1
a: Condition not met

q: Threshold query (pIC50 >= 7) on Cc1ccc(Cn2ccnc2/C=N/Nc2nc(NC3CCN(C)CC3)c3ccccc3n2)cc1
a: Condition not met
